This section presents variants with their documented AIRE transcriptional activation functional score values.
B1: library; numbered along this chain (parent)
chain: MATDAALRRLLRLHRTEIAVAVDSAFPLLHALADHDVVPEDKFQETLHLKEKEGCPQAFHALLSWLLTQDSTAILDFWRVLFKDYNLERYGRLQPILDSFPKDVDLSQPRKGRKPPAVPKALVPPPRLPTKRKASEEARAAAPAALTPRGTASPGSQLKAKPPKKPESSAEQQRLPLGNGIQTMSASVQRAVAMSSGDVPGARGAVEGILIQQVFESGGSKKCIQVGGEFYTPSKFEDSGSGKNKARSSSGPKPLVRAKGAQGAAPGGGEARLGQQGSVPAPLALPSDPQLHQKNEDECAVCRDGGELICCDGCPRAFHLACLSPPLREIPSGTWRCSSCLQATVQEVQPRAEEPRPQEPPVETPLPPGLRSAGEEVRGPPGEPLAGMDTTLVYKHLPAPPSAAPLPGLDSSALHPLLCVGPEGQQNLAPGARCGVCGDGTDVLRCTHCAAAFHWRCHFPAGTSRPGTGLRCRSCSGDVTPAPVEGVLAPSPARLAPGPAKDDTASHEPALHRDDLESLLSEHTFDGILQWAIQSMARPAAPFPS

Variants of: B1
assaySummary: AIRE transcriptional activation functional score (insulin promoter-GFP; nonsense median 0, synonymous median 1) (normalised score); higher = higher AIRE activity (more reporter activation)
conditionDetails: with insulin promoter-GFP reporter in HEK293
Output spec: single numeric token, no unit.

- variantDescriptor: "T68H"
  endpointResult: 0.424
- variantDescriptor: "L291N"
  endpointResult: 0.0689
- variantDescriptor: "H454V"
  endpointResult: 0.0829
- variantDescriptor: "E298W"
  endpointResult: 1.13
- variantDescriptor: "R110S"
  endpointResult: 1.01

Please report the measured AIRE transcriptional activation functional score for P539A
0.371

Please report the measured AIRE transcriptional activation functional score for E171T
1.52

Please report the measured AIRE transcriptional activation functional score for E347N
0.719

Please report the measured AIRE transcriptional activation functional score for H512G
0.716
